Lab note: IC50 readings collected with WWP1 (Homo sapiens, UniProt Q9H0M0) for the following compounds.
Sequence (Q9H0M0 whole entry): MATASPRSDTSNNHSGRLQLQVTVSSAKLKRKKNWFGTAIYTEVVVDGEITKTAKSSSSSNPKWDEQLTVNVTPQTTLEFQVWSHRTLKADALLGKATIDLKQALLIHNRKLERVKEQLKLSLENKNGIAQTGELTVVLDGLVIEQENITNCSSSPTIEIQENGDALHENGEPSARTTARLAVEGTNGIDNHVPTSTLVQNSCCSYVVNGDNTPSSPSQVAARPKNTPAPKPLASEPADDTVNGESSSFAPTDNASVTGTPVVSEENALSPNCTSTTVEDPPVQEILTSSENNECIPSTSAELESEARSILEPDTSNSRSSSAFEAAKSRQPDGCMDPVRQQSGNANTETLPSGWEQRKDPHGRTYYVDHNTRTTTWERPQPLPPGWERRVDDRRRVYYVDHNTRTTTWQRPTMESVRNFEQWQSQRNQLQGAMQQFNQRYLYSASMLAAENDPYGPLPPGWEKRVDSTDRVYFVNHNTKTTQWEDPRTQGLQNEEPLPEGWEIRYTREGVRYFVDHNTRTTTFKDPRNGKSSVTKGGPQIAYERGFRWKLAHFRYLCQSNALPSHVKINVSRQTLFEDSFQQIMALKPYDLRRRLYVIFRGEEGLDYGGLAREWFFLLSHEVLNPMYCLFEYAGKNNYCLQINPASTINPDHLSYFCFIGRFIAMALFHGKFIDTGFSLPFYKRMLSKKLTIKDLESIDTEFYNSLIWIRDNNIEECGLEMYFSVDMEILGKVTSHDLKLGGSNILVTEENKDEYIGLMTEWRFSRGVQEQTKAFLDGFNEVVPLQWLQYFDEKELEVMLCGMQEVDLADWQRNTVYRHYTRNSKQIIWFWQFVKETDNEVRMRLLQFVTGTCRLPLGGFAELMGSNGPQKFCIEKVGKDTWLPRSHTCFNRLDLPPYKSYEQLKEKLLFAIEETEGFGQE
The reply should contain only the number, in µM.

Q: Find the measured IC50: item "C#CCNC(=O)c1ccc2c(Cc3c[nH]c4ccccc34)c[nH]c2c1" , target or system WWP1 (Homo sapiens, UniProt Q9H0M0).
A: 32

Q: Find the measured IC50: item "C#CCN(CCO)C(=O)c1ccc2c(Cc3c[nH]c4ccccc34)c[nH]c2c1" , target or system WWP1 (Homo sapiens, UniProt Q9H0M0).
A: 15

Q: Find the measured IC50: item "Fc1ccc2[nH]cc(Cc3c[nH]c4ccc(F)cc34)c2c1" , target or system WWP1 (Homo sapiens, UniProt Q9H0M0).
A: 66
